# Species on record: Rattus norvegicus
# PROCEDURE TEXT: DrugMatrix - Regimen: Daily Repeat
# Format: toxicity, organism-based, Sprague-Dawley
# Design: regimen Daily Repeat, gender Male, age 6-8 weeks
# EXPERIMENTAL PARAMETERS: in vivo, po, 1500 mg/kg, 120 h, tissue Plasma, route oral GAVAGE, dose level High, time 5 day, vehicle .5 % CMC
MEASURED ENDPOINT: POTASSIUM (MEQ/L)

# COMPOUND, OBSERVED MEASUREMENT
rows = [
    ("COc1ccc(Cl)cc1C(=O)NCCc1ccc(S(=O)(=O)NC(=O)NC2CCCCC2)cc1 [GLYBURIDE]", 6.2),
    ("Cc1ccc(S(=O)(=O)NC(=O)NN2CCCCCC2)cc1 [TOLAZAMIDE]", 6.1),
    ("CC[C@H]1OC(=O)[C@H](C)[C@@H](O[C@H]2C[C@@](C)(OC)[C@@H](O)[C@H](C)O2)[C@H](C)[C@@H](O[C@@H]2O[C@H](C)C[C@H](N(C)C)[C@H]2O)[C@](C)(O)C[C@@H](C)C(=O)[C@H](C)[C@@H](O)[C@]1(C)O", 9.14),
    ("O=C(O)CCc1nc(-c2ccccc2)c(-c2ccccc2)o1", 6.06),
    ("COc1cc(/C=C/C(=O)O)ccc1O [FERULATE]", 6.41),
]

----------
# Species on record: Rattus norvegicus
# PROCEDURE TEXT: DrugMatrix - Regimen: Daily Repeat
# Format: toxicity, organism-based, Sprague-Dawley
# Parameters: regimen Daily Repeat, gender Male, age 6-8 weeks
# EXPERIMENTAL PARAMETERS: in vivo, po, 0 mg/kg, 72 h, tissue Blood, route oral GAVAGE, dose level Control, time 3 day, vehicle .5 % CMC
Define the label as Fulfilled when ABSOLUTE EOSINOPHIL is strictly less than 200 CELLS/uL and as Not fulfilled in all remaining cases.

# MOLECULE, ASSIGNED LABEL
data = [
    ("NC(=O)CN1CCCC1=O", "Fulfilled"),
    ("CCOc1cc(N)c(Cl)cc1C(=O)NCC1CN(Cc2ccc(F)cc2)CCO1 (configuration not stated) [MOSAPRIDE]", "Fulfilled"),
    ("CC(C)(C#N)c1cc(Cn2cncn2)cc(C(C)(C)C#N)c1", "Fulfilled"),
    ("COc1cc(/C=C/C(=O)O)ccc1O [FERULATE]", "Not fulfilled"),
    ("CC(=O)Nc1ccc2c(c1)Cc1ccccc1-2", "Fulfilled"),
    ("NC(=O)NC(=O)Cc1ccccc1 [PHENACEMIDE]", "Fulfilled"),
    ("Cl.NC[C@H]1CC[C@H](C(=O)Oc2ccc(CCC(=O)O)cc2)CC1 [CETRAXATE HYDROCHLORIDE]", "Not fulfilled"),
    ("Cc1cc2c(s1)Nc1ccccc1N=C2N1CCN(C)CC1", "Fulfilled"),
    ("NCC(CC(=O)O)c1ccc(Cl)cc1 (configuration not stated)", "Fulfilled"),
    ("O=C(O)CCc1nc(-c2ccccc2)c(-c2ccccc2)o1", "Fulfilled"),
    ("CN(C)CCOC(c1ccccc1)c1ccccc1.Cn1c(=O)c2[nH]c(Cl)nc2n(C)c1=O [DIMENHYDRINATE]", "Fulfilled"),
    ("CCN1CCCC1CNC(=O)c1cc(S(N)(=O)=O)ccc1OC (configuration not stated) [SULPIRIDE]", "Fulfilled"),
]

----------
Listed next: entries and their corresponding CREATININE.
# Species on record: Rattus norvegicus
# PROCEDURE TEXT: DrugMatrix - Regimen: Daily Repeat
# Format: toxicity, organism-based, Sprague-Dawley
# Set-up: regimen Daily Repeat, gender Male, age 6-8 weeks
# EXPERIMENTAL PARAMETERS: in vivo, po, 0 mg/kg, 72 h, tissue Plasma, route oral GAVAGE, dose level Control, time 3 day, vehicle .5 % CMC

# COMPOUND, UNIT LABEL, CREATININE
rows = [
    ("CN(C)CCOC(c1ccccc1)c1ccccc1.Cn1c(=O)c2[nH]c(Cl)nc2n(C)c1=O [DIMENHYDRINATE]", "mg/dL", 0.19),
    ("O=C1c2ccccc2C(=O)C1c1ccccc1 [PHENINDIONE]", "mg/dL", 0.57),
    ("NC(=O)CN1CCCC1=O", "mg/dL", 0.18),
    ("NC(=O)NC(=O)Cc1ccccc1 [PHENACEMIDE]", "mg/dL", 0.25),
    ("CCN1C[C@]2(COC)[C@H](O)C[C@H](OC)[C@@]34[C@@H]5C[C@@]6(O)[C@H](OC(=O)c7ccccc7)[C@@H]5[C@@](OC(C)=O)([C@@H]([C@H](OC)[C@H]23)[C@@H]14)[C@@H](O)[C@@H]6OC [ACONITINE]", "mg/dL", 0.57),
    ("CCN(CC)CCNC(=O)c1cc(Cl)c(N)cc1OC [METOCLOPRAMIDE]", "mg/dL", 0.48),
    ("CC(C)NCC(O)COc1ccc(CC(N)=O)cc1 (centres undefined) [ATENOLOL]", "mg/dL", 0.57),
    ("CC(=O)Nc1ccc2c(c1)Cc1ccccc1-2 [2-ACETYLAMINOFLUORENE]", "mg/dL", 0.18),
    ("COc1cc(NC(C)CCCN)c2ncccc2c1 (centres undefined) [PRIMAQUINE]", "mg/dL", 0.58),
]

----------
# Species on record: Rattus norvegicus
# PROCEDURE TEXT: DrugMatrix - Regimen: Daily Repeat
# Type: toxicity, organism-based, Sprague-Dawley
# Parameters: regimen Daily Repeat, gender Male, age 6-8 weeks
# EXPERIMENTAL PARAMETERS: in vivo, po, 0 mg/kg, 72 h, tissue Plasma, route oral GAVAGE, dose level Control, time 3 day, vehicle .5 % CMC

# COMPOUND, CHOLESTEROL
measured = [
    ("CC(C)Cc1ccc([C@H](C)C(=O)O)cc1", "71.17 mg/dL"),
    ("Cc1cc2c(s1)Nc1ccccc1N=C2N1CCN(C)CC1", "68.83 mg/dL"),
    ("CCN(CC)CCNC(=O)c1cc(Cl)c(N)cc1OC [METOCLOPRAMIDE]", "75.17 mg/dL"),
    ("COc1cc(/C=C/C(=O)O)ccc1O [FERULATE]", "76.67 mg/dL"),
    ("CC(=O)Nc1ccc2c(c1)Cc1ccccc1-2", "66.83 mg/dL"),
    ("CC(C)NCC(O)COc1ccc(CC(N)=O)cc1 (stereo not given)", "78.17 mg/dL"),
    ("O=C1c2ccccc2C(=O)C1c1ccccc1", "71 mg/dL"),
    ("Nc1ccc(C(=O)O)c(O)c1", "64.33 mg/dL"),
    ("CN(C)CCC=C1c2ccccc2COc2ccccc21 [DOXEPIN]", "78.17 mg/dL"),
    ("CN(C)CCOC(c1ccccc1)c1ccccc1.Cn1c(=O)c2[nH]c(Cl)nc2n(C)c1=O [DIMENHYDRINATE]", "71.67 mg/dL"),
]

----------
We begin with a simple list: items and their reported EOSINOPHIL.
# Organism: Rattus norvegicus
# PROCEDURE TEXT: DrugMatrix - Regimen: Daily Repeat
# Format: toxicity, organism-based, Sprague-Dawley
# Parameters: regimen Daily Repeat, gender Male, age 6-8 weeks
# EXPERIMENTAL PARAMETERS: in vivo, po, 1500 mg/kg, 72 h, tissue Blood, route oral GAVAGE, dose level High, time 3 day, vehicle .5 % CMC

# MOLECULE, EOSINOPHIL [%]
records = [
    ("O=C(O)CCc1nc(-c2ccccc2)c(-c2ccccc2)o1 [OXAPROZIN]", 0),
    ("CC[C@H]1OC(=O)[C@H](C)[C@@H](O[C@H]2C[C@@](C)(OC)[C@@H](O)[C@H](C)O2)[C@H](C)[C@@H](O[C@@H]2O[C@H](C)C[C@H](N(C)C)[C@H]2O)[C@](C)(O)C[C@@H](C)C(=O)[C@H](C)[C@@H](O)[C@]1(C)O [ERYTHROMYCIN]", 0),
    ("Cc1ccc(S(=O)(=O)NC(=O)NN2CCCCCC2)cc1 [TOLAZAMIDE]", 0),
    ("COc1cc(/C=C/C(=O)O)ccc1O [FERULATE]", 0.33),
    ("COc1ccc(Cl)cc1C(=O)NCCc1ccc(S(=O)(=O)NC(=O)NC2CCCCC2)cc1 [GLYBURIDE]", 0),
]

----------
# Organism: Rattus norvegicus
# PROCEDURE TEXT: DrugMatrix - Regimen: Daily Repeat
# Assay type: toxicity, organism-based, Sprague-Dawley
# Parameters: regimen Daily Repeat, gender Male, age 6-8 weeks
# EXPERIMENTAL PARAMETERS: in vivo, po, 0 mg/kg, 72 h, tissue Plasma, route oral GAVAGE, dose level Control, time 3 day, vehicle .5 % CMC
MEASURED ENDPOINT: ASPARTATE AMINOTRANSFERASE (u/L)

# COMPOUND, MEASURED ENDPOINT, OBSERVED MEASUREMENT
rows = [
    ("CN(C)CCC=C1c2ccccc2COc2ccccc21 [DOXEPIN]", "ASPARTATE AMINOTRANSFERASE", 67.17),
    ("Cl.NC[C@H]1CC[C@H](C(=O)Oc2ccc(CCC(=O)O)cc2)CC1 [CETRAXATE HYDROCHLORIDE]", "ASPARTATE AMINOTRANSFERASE", 84.83),
    ("COc1ccc(Cl)cc1C(=O)NCCc1ccc(S(=O)(=O)NC(=O)NC2CCCCC2)cc1 [GLYBURIDE]", "ASPARTATE AMINOTRANSFERASE", 63.17),
    ("CC(=O)Nc1ccc2c(c1)Cc1ccccc1-2 [2-ACETYLAMINOFLUORENE]", "ASPARTATE AMINOTRANSFERASE", 108.17),
    ("NC(=O)CN1CCCC1=O", "ASPARTATE AMINOTRANSFERASE", 112.83),
    ("NC(=O)NC(=O)Cc1ccccc1 [PHENACEMIDE]", "ASPARTATE AMINOTRANSFERASE", 83.17),
    ("NCC(CC(=O)O)c1ccc(Cl)cc1 (stereo not given) [BACLOFEN]", "ASPARTATE AMINOTRANSFERASE", 108.17),
    ("Cc1cc2c(s1)Nc1ccccc1N=C2N1CCN(C)CC1 [OLANZAPINE]", "ASPARTATE AMINOTRANSFERASE", 93.17),
    ("CN(C)CCOC(c1ccccc1)c1ccccc1.Cn1c(=O)c2[nH]c(Cl)nc2n(C)c1=O [DIMENHYDRINATE]", "ASPARTATE AMINOTRANSFERASE", 86.5),
    ("CCOc1cc(N)c(Cl)cc1C(=O)NCC1CN(Cc2ccc(F)cc2)CCO1 (stereo not given) [MOSAPRIDE]", "ASPARTATE AMINOTRANSFERASE", 108.17),
]
